target: T1, TAT194 polypeptide as used in the BIAcore analysis (human, UniProt P07949 29-635, limits assumed); test: standard BIAcore analysis
T1 construct: The construct used for the BIAcore analysis (extracellular domain, tag, fusion, isoform) is not described; also called RET
property: pKd
# log scale: pKd equals minus log10 of the concentration in mol/L

[[record]]
binder = "anti-TAT194 monoclonal antibody R4208 (antibody, V domains shown, Monoclonal antibody from a mouse hybridoma; kappa VL) VH: QVHLQQSGSELRSPGSSVKLSCKDFDSEVFPIAYMSWVRQKPGHGFEWIGDILPNIGRTIYGEKFEDKATLDADTVSNTAYLELNSLTSEDSAMYYCGRSITRAWFAYWGQGTLVTVSV VL: DIQMTQSPSSLSASLGERVSLTCRASQEISGYLSWFQQKPDGTIKRLIYAASTLDSGVPKRFSGSRSGSDYSLTISSLASEDFADYFCLQYAGNPFTFGSGTKLEIKR"
property = "pKd"
reported = 8.90


Here is another binder to look at.
[in] Name the recorded pKd for anti-TAT194 monoclonal antibody R4206 (antibody, V domains shown, Monoclonal antibody from a mouse hybridoma; kappa VL) VH: DVQLQESGPGLVKPSQSLSLTCTVTGFSITSDYAWNWIRQFPGNKLEWMAYITYSGDTGYNPSLKSRISVTRDTSKNQFFLQLSSVTTEDTATYYCARGNYDWVFAYWGQGTLVTVSA VL: DVQITQSPSYLAASPGETITINCRASKSISKYLAWYQEKPGKTNKLLIYSGSTLQSGIPSRFSGSGSGTDFTLTISSLEPEDFAMYYCQQYIEYPWTFGGGTKLEIKR .
[out] 9.47
